target: CaSho1; assay: SPOT peptide array binding signal intensity (averaged, normalized) (arbitrary units (background-subtracted, floor 0; scale differs between SH3 domains)); higher = stronger binding of the SH3 domain to the peptide
Exercise: state measured SPOT peptide array binding signal intensity for each of the binders provided.
Answer with a bare number; do not write a unit.

Note down SPOT peptide array binding signal intensity recorded for `VPPPMQPPPIESSNL`
279

Note down SPOT peptide array binding signal intensity recorded for `PKRRAPPPVPKKPSS`
93

Note down SPOT peptide array binding signal intensity recorded for `QHQQRQPKRPKRYSL`
56.5

Note down SPOT peptide array binding signal intensity recorded for `FFRRSELYLPNSSKA`
318

Note down SPOT peptide array binding signal intensity recorded for `WTQRRGPLVVYAEDN`
32

Note down SPOT peptide array binding signal intensity recorded for `FSRRQSMDIPSKNRN`
691

Note down SPOT peptide array binding signal intensity recorded for `HRRRRVFSIPSLKSI`
1550

Note down SPOT peptide array binding signal intensity recorded for `KRRTSLFPWLHKPGI`
664

Note down SPOT peptide array binding signal intensity recorded for `SRQAIPPPVPNRPGG`
8

Note down SPOT peptide array binding signal intensity recorded for `QNTPPLPPKPKSPHL`
81

Note down SPOT peptide array binding signal intensity recorded for `RKRRTHLRLPLIRSN`
478
